Test system: Mycobacterium intracellulare
procedure details: Antibacterial activity against Mycobacterium intracellular ATCC 23068 at 20 ug/ml by CLSI method
Format: functional, organism-based
Active and inactive are the calls of the source. No cut-off for these calls is given here.
recorded endpoint: MIC

COc1cc(NC(C)CCCNC(=O)C[C@H](N)C(=O)NCCCC(C)Nc2cc(OC)cc3cccnc23)c2ncccc2c1.Cl (stereo partly drawn) | inactive
COc1cc(NC(C)CCCNC(=O)NC(CCCNC(=N)N)C(=O)NCCCC(C)Nc2cc(OC)cc3cccnc23)c2ncccc2c1 (single isomer, unassigned; 39) | inactive
COc1cc(NC(C)CCCNC(=O)CC[C@H](N)C(=O)NCCCC(C)Nc2cc(OC)cc3ccc(C(C)(C)C)nc23)c2nc(C(C)(C)C)ccc2c1.Cl (stereo partly drawn) | inactive
